# assay-system: 4H_GCN4
# Sequence (chain, as listed by the source): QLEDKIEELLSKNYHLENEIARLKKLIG
# procedure-text: two-hybrid library CCmax;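 also: natural log of median RNA to DNA barcode read ratio; higher means stronger binding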
property: interaction score
Reply: number alone, nothing else.

Exercise: Give the measured interaction score of DEIAALEAEIAALEAKNAALEAKNAALKG [4H56-AA] .
Key: -1.92

Exercise: Data request, read-out interaction score, for DENAALKAKIAALEAEIAALKAEIAALKG [4H1802-AA]
Key: -1.26

Exercise: Which value of interaction score has been reported for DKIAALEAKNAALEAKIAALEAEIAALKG [4H2466-AA] in the records?
Key: -1.67

Exercise: I'd like to know its interaction score. The binder in question is DKIAALKAKIAALKAEIAALEAKNAALKG [4H2888-AA]
Key: -1.53

Exercise: Param item = DENAALEAENAALEAKIAALKAEIAALEG [4H1193-AA] ; retrieve measured interaction score.
Key: -1.64

Exercise: Need interaction score, item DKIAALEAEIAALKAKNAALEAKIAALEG [4H2165-AA]
Key: -1.58

Exercise: What interaction score value was documented for this binder, DKIAALKAEIAALEAENAALKAKNAALKG [4H2592-AA] ?
Key: -1.33

Exercise: Find the recorded interaction score belonging to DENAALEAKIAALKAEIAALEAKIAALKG [4H1350-AA] and report it.
Key: -1.31

Exercise: Quick one: interaction score of DEIAALEAKIAALKAKIAALEAENAALEG [4H355-AA] ?
Key: -1.7

Exercise: interaction score lookup needed for DEIAALEAKNAALKAEIAALEAENAALEG [4H451-AA] , thanks.
Key: -1.53

Exercise: Would you kindly share the measured interaction score for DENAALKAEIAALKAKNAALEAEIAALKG [4H1650-AA] ?
Key: -1.9

Exercise: # interaction score lookup, item DENAALKAEIAALKAEIAALKAKNAALEG [4H1615-AA]
Key: -1.57

Exercise: Value lookup for interaction score; key = DKNAALEAKIAALEAKIAALEAKIAALEG [4H3365-AA]
Key: -1.72

Exercise: Which interaction score is listed for DENAALEAKIAALKAKIAALKAKNAALKG [4H1392-AA] ?
Key: -1.48
